The values you see were collected from ChEMBL document CHEMBL4311965.

# ASSAY PROTOCOL: Selectivity index, ratio of EC50 for hemolytic activity against human RBC to MIC for antibacterial activity against Staphylococcus aureus ATCC 9144
# Type: toxicity
# PROTOCOL CONDITIONS: human red blood cells (RBC)
METRIC: selectivity ratio
Numbers only.

Record excerpt, results attached:
SMILES CODE	MEASURED NUMBER
N#CC(Cc1ccc(C(F)(F)F)cc1)(Cc1ccc(C(F)(F)F)cc1)C(=O)NCCN	6
NCCNCC(CN)(Cc1ccc(F)c2ccccc12)Cc1ccc(F)c2ccccc12	14
NCCNC(=O)C(CN)(Cc1ccc(F)c2ccccc12)Cc1ccc(F)c2ccccc12	19

Below are 6 compounds. Give each one its selectivity ratio.
1. NCCNC(=O)C(CN)(Cc1ccccc1C(F)(F)F)Cc1ccccc1C(F)(F)F
2. NCCNC(=O)C(CN)(Cc1ccc(C(F)(F)F)cc1)Cc1ccc(C(F)(F)F)cc1
3. N=C(N)NCCNC(=O)C(CNC(=N)N)(Cc1ccc(F)c2ccccc12)Cc1ccc(F)c2ccccc12
4. NCCNC(=O)C(CN)(Cc1cccc2ccccc12)Cc1cccc2ccccc12
5. N#CC(Cc1ccccc1Br)(Cc1ccccc1Br)C(=O)NCCN
6. NCCNC(=O)C(CN)(Cc1cc(C(F)(F)F)cc(C(F)(F)F)c1)Cc1cc(C(F)(F)F)cc(C(F)(F)F)c1

10
36
165
23
13
12
